Experiment: Conjugation of anti-CD98 mAbs with Bcl-xL inhibitor synthons (precipitation, DAR, recovery, aggregation)
Conditions: conjugation with synthon CZ, Method E
endpoint: DAR by MS

In: I have this molecule here, huAb103: "heavy chain variable sequence of huAb103 is provided in SEQ ID NO: 109"; "light chain variable sequence ... in SEQ ID NO: 107" (antibody, V domains shown) VH: EVQLVESGGGLVKPGGSLRLSCATSGFTFIDYYMSWVRQAPGKGLEWLGFIRNKAYGYTTEYSASVKGRFTISRDNSKSILYLQMNSLKTEDTAVYYCTRDRPAWFVYWGQGTLVTVSS VL: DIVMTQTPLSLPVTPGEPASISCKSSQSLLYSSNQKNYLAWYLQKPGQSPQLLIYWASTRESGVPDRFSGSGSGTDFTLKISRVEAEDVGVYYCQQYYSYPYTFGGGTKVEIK , and I need its recorded DAR by MS.
Out: 4.4
